# STUDY TARGET: Inhibitor of nuclear factor kappa-B kinase subunit alpha (Homo sapiens)
# Sequence (O15111 whole entry): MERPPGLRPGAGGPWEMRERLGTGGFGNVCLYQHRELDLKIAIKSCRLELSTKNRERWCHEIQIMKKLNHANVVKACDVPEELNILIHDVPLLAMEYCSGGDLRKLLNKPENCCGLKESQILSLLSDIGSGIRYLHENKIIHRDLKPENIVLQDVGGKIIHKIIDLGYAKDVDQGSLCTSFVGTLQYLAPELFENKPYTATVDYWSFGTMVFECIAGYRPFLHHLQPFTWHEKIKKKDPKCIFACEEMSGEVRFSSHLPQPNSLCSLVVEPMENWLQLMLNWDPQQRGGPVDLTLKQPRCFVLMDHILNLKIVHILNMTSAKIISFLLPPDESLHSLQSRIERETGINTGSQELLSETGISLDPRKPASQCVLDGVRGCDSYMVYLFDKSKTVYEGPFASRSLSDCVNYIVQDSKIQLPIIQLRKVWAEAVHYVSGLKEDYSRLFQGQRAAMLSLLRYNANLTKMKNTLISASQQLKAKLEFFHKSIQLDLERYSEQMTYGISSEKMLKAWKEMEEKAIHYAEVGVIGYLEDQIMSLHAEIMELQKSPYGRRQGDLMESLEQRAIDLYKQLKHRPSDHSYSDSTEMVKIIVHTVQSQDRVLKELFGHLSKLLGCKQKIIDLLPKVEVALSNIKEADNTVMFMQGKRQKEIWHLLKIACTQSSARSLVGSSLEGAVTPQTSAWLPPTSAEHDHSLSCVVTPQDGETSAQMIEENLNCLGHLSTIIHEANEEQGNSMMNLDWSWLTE
# PROCEDURE DETAILS: Inhibition of IKK alpha kinase
ATTRIBUTE MEASURED: pIC50
Remember, pIC50 is on a log scale: it is -log10 of the molar concentration.

# query: pIC50 of entry `CCN(CC)C/C=C/c1nc(O)c2c(ccc3nc(Nc4c(Cl)cccc4Cl)n(C)c32)c1C`
4.30

---

Target chain: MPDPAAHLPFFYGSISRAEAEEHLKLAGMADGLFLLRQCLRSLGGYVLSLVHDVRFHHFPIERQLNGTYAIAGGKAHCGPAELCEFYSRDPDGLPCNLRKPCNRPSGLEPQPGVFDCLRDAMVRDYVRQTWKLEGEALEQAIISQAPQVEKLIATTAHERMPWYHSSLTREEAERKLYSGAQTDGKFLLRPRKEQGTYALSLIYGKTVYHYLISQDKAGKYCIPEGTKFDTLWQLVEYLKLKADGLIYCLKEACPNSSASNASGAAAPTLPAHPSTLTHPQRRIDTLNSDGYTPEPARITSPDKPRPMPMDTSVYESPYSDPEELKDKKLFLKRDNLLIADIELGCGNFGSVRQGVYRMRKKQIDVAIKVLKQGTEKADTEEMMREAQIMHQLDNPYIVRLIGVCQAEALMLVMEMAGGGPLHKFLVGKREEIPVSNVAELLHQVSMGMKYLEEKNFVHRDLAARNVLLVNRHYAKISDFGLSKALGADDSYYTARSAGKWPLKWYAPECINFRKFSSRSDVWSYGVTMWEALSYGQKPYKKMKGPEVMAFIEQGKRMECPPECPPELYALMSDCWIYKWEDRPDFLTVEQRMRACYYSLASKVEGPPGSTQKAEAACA
ATTRIBUTE MEASURED: pIC50
Keep in mind that pIC50 stands for -log10 of concentration in molar terms.

Fill blank: measured pIC50 of the compound `CCN(CC)C/C=C/c1nc(O)c2c(ccc3nc(Nc4c(Cl)cccc4Cl)n(C)c32)c1C` is ____.
6.40

---

# STUDY TARGET: Ribosomal protein S6 kinase alpha-5 (Homo sapiens, UniProt O75582)
# Sequence (O75582 whole entry): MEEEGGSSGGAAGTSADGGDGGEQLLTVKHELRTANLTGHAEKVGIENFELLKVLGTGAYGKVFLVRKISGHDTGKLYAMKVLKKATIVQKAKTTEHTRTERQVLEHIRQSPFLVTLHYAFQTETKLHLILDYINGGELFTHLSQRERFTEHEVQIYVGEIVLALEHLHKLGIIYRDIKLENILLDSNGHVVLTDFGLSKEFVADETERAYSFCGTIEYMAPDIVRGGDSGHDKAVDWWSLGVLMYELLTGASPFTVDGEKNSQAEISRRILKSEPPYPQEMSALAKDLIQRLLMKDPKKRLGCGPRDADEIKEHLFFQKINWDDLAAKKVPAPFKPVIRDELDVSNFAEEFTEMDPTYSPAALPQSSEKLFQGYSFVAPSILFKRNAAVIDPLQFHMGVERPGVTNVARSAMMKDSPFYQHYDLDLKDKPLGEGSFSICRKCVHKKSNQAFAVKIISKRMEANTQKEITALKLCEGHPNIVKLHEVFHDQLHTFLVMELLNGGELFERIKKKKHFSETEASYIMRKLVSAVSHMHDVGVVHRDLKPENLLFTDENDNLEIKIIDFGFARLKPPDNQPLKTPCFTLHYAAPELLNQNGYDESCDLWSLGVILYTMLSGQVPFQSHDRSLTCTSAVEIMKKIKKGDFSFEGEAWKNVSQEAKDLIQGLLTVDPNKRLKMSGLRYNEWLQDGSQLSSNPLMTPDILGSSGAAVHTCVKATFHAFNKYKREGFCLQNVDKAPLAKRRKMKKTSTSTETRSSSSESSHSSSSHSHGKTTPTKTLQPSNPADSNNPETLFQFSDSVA
ATTRIBUTE MEASURED: IC50

Suppose we examine the compound `CCN(CC)C/C=C/c1nc(O)c2c(ccc3nc(Nc4c(Cl)cccc4Cl)n(C)c32)c1C` ; what IC50 value has been reported?
> 1000 nM

---

# STUDY TARGET: Serine/threonine-protein kinase Sgk1 (Homo sapiens)
# Sequence (O00141 whole entry): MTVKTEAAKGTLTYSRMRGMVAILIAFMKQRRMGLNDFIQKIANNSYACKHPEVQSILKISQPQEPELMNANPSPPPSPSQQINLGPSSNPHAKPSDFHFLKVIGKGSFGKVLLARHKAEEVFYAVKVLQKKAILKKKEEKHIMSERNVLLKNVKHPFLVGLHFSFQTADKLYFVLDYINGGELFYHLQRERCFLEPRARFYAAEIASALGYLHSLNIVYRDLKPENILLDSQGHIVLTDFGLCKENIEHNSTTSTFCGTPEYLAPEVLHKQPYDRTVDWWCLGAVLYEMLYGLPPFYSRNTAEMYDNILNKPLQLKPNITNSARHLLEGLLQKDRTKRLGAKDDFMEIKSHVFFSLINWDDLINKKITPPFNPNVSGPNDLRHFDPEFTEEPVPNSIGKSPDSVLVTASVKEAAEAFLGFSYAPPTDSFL
# PROCEDURE DETAILS: Inhibition of Serum/glucocorticoid regulated kinase
pIC50: −log10 of the molar value.
ATTRIBUTE MEASURED: pIC50

// returns reported pIC50 for input `CCN(CC)C/C=C/c1nc(O)c2c(ccc3nc(Nc4c(Cl)cccc4Cl)n(C)c32)c1C`
< 6.00

---

# PROCEDURE DETAILS: Inhibition of Insulin-like growth factor receptor
pIC50: −log10 of the molar value.
ATTRIBUTE MEASURED: pIC50

I would be grateful if you could share the reported pIC50 for `CCN(CC)C/C=C/c1nc(O)c2c(ccc3nc(Nc4c(Cl)cccc4Cl)n(C)c32)c1C` .
< 4.00

---

Let's go through some pIC50 measurements on Tyrosine-protein kinase Lck (Homo sapiens) together.
Sequence (P06239 whole entry): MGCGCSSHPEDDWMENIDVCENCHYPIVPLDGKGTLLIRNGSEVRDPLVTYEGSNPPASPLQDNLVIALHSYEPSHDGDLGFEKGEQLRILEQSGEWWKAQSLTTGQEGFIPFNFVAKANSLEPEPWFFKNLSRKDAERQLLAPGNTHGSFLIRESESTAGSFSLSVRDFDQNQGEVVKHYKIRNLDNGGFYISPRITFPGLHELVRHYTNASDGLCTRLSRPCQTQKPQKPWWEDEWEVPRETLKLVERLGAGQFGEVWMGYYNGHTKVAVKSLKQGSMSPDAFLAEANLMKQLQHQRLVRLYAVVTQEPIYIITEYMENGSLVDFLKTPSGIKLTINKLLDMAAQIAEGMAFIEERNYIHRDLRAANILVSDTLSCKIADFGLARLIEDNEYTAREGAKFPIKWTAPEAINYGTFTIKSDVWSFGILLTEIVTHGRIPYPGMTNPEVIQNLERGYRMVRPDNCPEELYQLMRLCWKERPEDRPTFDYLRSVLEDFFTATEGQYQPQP
Entry type: numeric. Quantity: pIC50, the -log10 of concentration in molar units.

COMPOUND	ATTRIBUTE MEASURED	ASSAY RESULT
Cc1c(/C=C/CN(C)C)nc(O)c2c1ccc1nc(Nc3c(Cl)cccc3Cl)n(C)c12	pIC50	8.52

What pIC50 appears in the records for this compound with Tyrosine-protein kinase Lck (Homo sapiens)? `Cc1nc(O)c2c(cc(CNCCO)c3nc(Nc4c(Cl)cccc4Cl)n(C)c32)c1C`
7.59

What measured pIC50 is associated with C=CC(O)c1nc(O)c2c(ccc3nc(Nc4c(Cl)cccc4Cl)n(C)c32)c1C (stereo not given) on Tyrosine-protein kinase Lck (Homo sapiens)?
6.24

Param readout= pIC50; system= Tyrosine-protein kinase Lck (Homo sapiens); entry= `Cc1c(CO)nc(O)c2c1ccc1nc(Nc3c(Cl)cccc3Cl)n(C)c12` ; returns value.
6.11

Form field - read-out: pIC50; system: Tyrosine-protein kinase Lck (Homo sapiens); submitted item: `Cc1nc(O)c2c(ccc3nc(Nc4c(Cl)cccc4Cl)n(C)c32)c1CCN1CCOCC1`
7.52
